# percent inhibition of Factor 7 mRNA, relative to untreated control cells values compiled below
system: human Factor 7 mRNA; assay: Dose-dependent antisense inhibition of human Factor 7 in HepB3 cells, electroporation; type: cell-based; conditions: 100 μM, approx. 16 hours (Table 15, Example 7)
Strand notation (5' to 3'): a small letter for the sugar, then the base; units joined by * are phosphorothioate-linked, units joined directly phosphodiester-linked; [ ] holds rarer units or linkages, { } end groups; capitals alone tell only the bases. e = 2'-O-(2-methoxyethyl) (MOE); [5mC] = 5-methylcytosine; d = 2'-deoxy (DNA)
Result type: percent inhibition of Factor 7 mRNA, relative to untreated control cells (%)

[
  {
    "Substance": "422086 (antisense eT*eG*e[5mC]*eA*eT*dG*dG*dT*dG*dA*dT*dG*d[5mC]*dT*dT*e[5mC]*eT*eG*eA*eA) [compound 422086]",
    "Value reported": 84
  },
  {
    "Substance": "422140 (antisense eG*eT*eT*e[5mC]*eT*dG*d[5mC]*dA*dG*dG*dA*dG*d[5mC]*dG*dG*e[5mC]*e[5mC]*eT*eA*eA) [compound 422140]",
    "Value reported": 77
  },
  {
    "Substance": "422130 (antisense eG*e[5mC]*e[5mC]*eT*eG*dA*dG*dG*d[5mC]*d[5mC]*dA*dG*d[5mC]*dA*dG*eA*eT*e[5mC]*eA*e[5mC]) [compound 422130]",
    "Value reported": 86
  },
  {
    "Substance": "407935 (antisense eA*eT*eG*e[5mC]*eA*dT*dG*dG*dT*dG*dA*dT*dG*d[5mC]*dT*eT*e[5mC]*eT*eG*eA) [compound 407935]",
    "Value reported": 87
  },
  {
    "Substance": "422252 (antisense e[5mC]*eG*d[5mC]*d[5mC]*dG*dG*d[5mC]*dT*d[5mC]*dT*dG*d[5mC]*dT*d[5mC]*dA*eT*e[5mC]*e[5mC]*e[5mC]*e[5mC]) [compound 422252]",
    "Value reported": 80
  },
  {
    "Substance": "422229 (antisense eA*eT*dG*d[5mC]*dA*dT*dG*dG*dT*dG*dA*dT*dG*d[5mC]*dT*eT*e[5mC]*eT*eG*eA) [compound 422229]",
    "Value reported": 77
  },
  {
    "Substance": "422228 (antisense eT*eG*d[5mC]*dA*dT*dG*dG*dT*dG*dA*dT*dG*d[5mC]*dT*dT*e[5mC]*eT*eG*eA*eA) [compound 422228]",
    "Value reported": 83
  },
  {
    "Substance": "407939 (antisense eT*eG*e[5mC]*eA*eG*d[5mC]*d[5mC]*d[5mC]*dG*dG*d[5mC]*dA*d[5mC]*d[5mC]*d[5mC]*eA*eG*e[5mC]*eG*eA) [compound 407939]",
    "Value reported": 82
  },
  {
    "Substance": "422087 (antisense e[5mC]*eA*eT*eG*e[5mC]*dA*dT*dG*dG*dT*dG*dA*dT*dG*d[5mC]*eT*eT*e[5mC]*eT*eG) [compound 422087]",
    "Value reported": 80
  },
  {
    "Substance": "422217 (antisense eG*eA*eG*dT*dT*d[5mC]*dT*dG*d[5mC]*dA*dG*dG*dA*dG*d[5mC]*dG*dG*e[5mC]*e[5mC]*eT) [compound 422217]",
    "Value reported": 83
  },
  {
    "Substance": "422296 (antisense e[5mC]*e[5mC]*dG*dA*dG*dT*dT*d[5mC]*dT*dG*d[5mC]*dA*dG*dG*dA*eG*e[5mC]*eG*eG*e[5mC]) [compound 422296]",
    "Value reported": 84
  }
]

From: patent US9029337B2
